Measured Percent Lowering of Glucose (AUC compound vs. AUC Vehicle) accompanies every entry in the list below.
test system: Male SD rats; experiment: Oral Glucose Tolerance Test; type: in vivo, rat; conditions: 10 mg/kg po 30-40 min prior to oGTT (glucose 2 g/kg po), blood glucose AUC t=0 to t=120 min
Hi! Could you send only the number? It should be in %, unit omitted.

Please review the following examples before continuing.
CC#C[C@@H](Cc1nnn[nH]1)c1ccc(OCc2ccc3scc(-c4ccc(OCCCS(C)(=O)=O)cc4C)c3c2)cc1
105
CC#C[C@@H](Cc1nnn[nH]1)c1ccc(OCc2ccc3scc(-c4ccccc4C)c3c2)cc1
81
CC#C[C@@H](Cc1nnn[nH]1)c1ccc(OCc2ccc3scc(-c4ccc(OCC5(C)CS(=O)(=O)C5)cc4C)c3c2)cc1
101
CC#C[C@@H](Cc1nnn[nH]1)c1ccc(OCc2ccc3sc(C(F)(F)F)c(-c4ccc(OCCOC)cc4C)c3c2)cc1
91

Please look at the following compound next.
Q: Write down the reported Percent Lowering of Glucose (AUC compound vs. AUC Vehicle) (system: Male SD rats) of CC#C[C@@H](Cc1nnn[nH]1)c1ccc(OCc2ccc3sc(F)c(-c4ccc(OCCOC)cc4C)c3c2)cc1
A: 91
